# Method: Salt form and hygroscopic status: comparison of salts of 72953
# Type: physicochemical
# Condition notes: after complete drying
# Source text: Following the general procedure of Example 1, 72953 was reacted with sodium hydroxide, potassium hydroxide, and acetylcholine in stoichiometric ratios of 1:1 per dialkanoic acid molecule, and 2:1 per dialkanoic acid molecule. The properties of the solids thus prepared, following complete drying, were compared to the calcium salt (CI-1027) from Example 1.
Measured endpoint: Physical Form

compound="CC(C)(CCCCOCCCCC(C)(C)C(=O)[O-])C(=O)[O-].[Na+].[Na+] [di-sodium]" endpoint_result=Solid
compound="CC(C)(CCCCOCCCCC(C)(C)C(=O)[O-])C(=O)[O-].[K+].[K+] [di-potassium]" endpoint_result=Solid
compound="CC(C)(CCCCOCCCCC(C)(C)C(=O)O)C(=O)[O-].C[N+](C)(C)CCO [mono-choline]" endpoint_result=Oil
compound="CC(C)(CCCCOCCCCC(C)(C)C(=O)[O-])C(=O)[O-].C[N+](C)(C)CCO.C[N+](C)(C)CCO [di-choline]" endpoint_result=Oil

* * *

# Method: Pharmacokinetics of CI-1027 in rat
# Assay type: in vivo
# Condition notes: in vivo, other: intravenous (IV) and per orals (PO), intravenous (IV) and per orals (PO), read-out: apparent elimination half-life
Measured endpoint: half-life

Return reported half-life; argument: `CC(C)(CCCCOCCCCC(C)(C)C(=O)[O-])C(=O)[O-].[Ca+2]`
5 to 7 h

* * *

# Method: Bulk density (loose and tapped) of CI-1027 lots
# Condition notes: per lot
Measured endpoint: Bulk Density Tapped (g/mL)

Study these solved cases before continuing.
compound=CC(C)(CCCCOCCCCC(C)(C)C(=O)[O-])C(=O)[O-].[Ca+2] measured_endpoint="Bulk Density Tapped" endpoint_result=0.439
compound="CC(C)(CCCCOCCCCC(C)(C)C(=O)[O-])C(=O)[O-].[Ca+2] [CD-3221A]" measured_endpoint="Bulk Density Tapped" endpoint_result=0.521
compound="CC(C)(CCCCOCCCCC(C)(C)C(=O)[O-])C(=O)[O-].[Ca+2] [CD-3243]" measured_endpoint="Bulk Density Tapped" endpoint_result=0.300
compound="CC(C)(CCCCOCCCCC(C)(C)C(=O)[O-])C(=O)[O-].[Ca+2] [CD-3135]" measured_endpoint="Bulk Density Tapped" endpoint_result=0.379
compound="CC(C)(CCCCOCCCCC(C)(C)C(=O)[O-])C(=O)[O-].[Ca+2] [CD-3111]" measured_endpoint="Bulk Density Tapped" endpoint_result=0.264

a. CC(C)(CCCCOCCCCC(C)(C)C(=O)[O-])C(=O)[O-].[Ca+2] [CD-3082]
b. CC(C)(CCCCOCCCCC(C)(C)C(=O)[O-])C(=O)[O-].[Ca+2] [CD-3103]
Returns the identifier with the smallest measured Bulk Density Tapped among a and b . Please respond with the label that marks your chosen entry.
a

* * *

# Method: Pharmacokinetics of CI-1027 in dog
# Type: in vivo
# Condition notes: in vivo, other: intravenous (IV) and per orals (PO), intravenous (IV) and per orals (PO), read-out: apparent elimination half-life
Measured endpoint: half-life

Return reported half-life; argument: `CC(C)(CCCCOCCCCC(C)(C)C(=O)[O-])C(=O)[O-].[Ca+2]`
17 to 31 h

* * *

# Method: Bulk density (loose and tapped) of CI-1027 lots
# Condition notes: per lot
Measured endpoint: Bulk Density Loose (g/mL)

compound=CC(C)(CCCCOCCCCC(C)(C)C(=O)[O-])C(=O)[O-].[Ca+2] unit_abbreviation=g/mL endpoint_result=0.336
compound="CC(C)(CCCCOCCCCC(C)(C)C(=O)[O-])C(=O)[O-].[Ca+2] [CD-3102]" unit_abbreviation=g/mL endpoint_result=0.215
compound="CC(C)(CCCCOCCCCC(C)(C)C(=O)[O-])C(=O)[O-].[Ca+2] [CD-3055]" unit_abbreviation=g/mL endpoint_result=0.280

I. CC(C)(CCCCOCCCCC(C)(C)C(=O)[O-])C(=O)[O-].[Ca+2] [CD-3135]
II. CC(C)(CCCCOCCCCC(C)(C)C(=O)[O-])C(=O)[O-].[Ca+2] [CD-3221A]
Which of the two gives a bigger number for Bulk Density Loose: I or II ? Please respond with the label that marks your chosen entry.
II
(II: 0.372 g/mL, I: 0.242 g/mL)
